The reported measurements were obtained from patent US7074785B2.

assay: logP determination by HPLC (reversed-phase C18, EEC Directive 79/831 Annex V.A8)
Type: physicochemical
conditionParameters: HPLC, neutral range pH 7.5, 0.01 molar phosphate buffer/acetonitrile; marked b); read-out: log P (pH 7.5)
Experimental: The logP values stated in the above tables and Preparation Examples are determined in accordance with EEC Directive 79/831 Annex V.A8 by HPLC (High Performance Liquid Chromatography) using a reversed-phase column (C 18). Temperature: 43° C. […] Calibration is carried out using unbranched alkan-2-ones (having 3 to 16 carbon atoms), with known logP values (the logP values determined on the basis of the retention times using linear interpolation between two successive alkanones).
Mark met only when chromatographic logP stays strictly below 4. Values equal to the cut-off are not met.

Ask | Quick check: chromatographic logP of CCOCCOC(=O)Nc1ccc(-c2ccc(C3CCC(c4c(F)cccc4F)=N3)cc2)cc1 (stereo not drawn) under 4?
Reply | met

Ask | Quick check: chromatographic logP of COCCOC(=O)Nc1ccc(-c2ccc(C3CCC(c4c(F)cccc4F)=N3)cc2)cc1 (stereo not drawn) under 4?
Reply | met

Ask | Quick check: chromatographic logP of O=C(Nc1ccc(-c2ccc(C3CCC(c4c(F)cccc4F)=N3)cc2)cc1)OCCOCCOCCCC(F)(F)C(F)(F)F (stereo not drawn) under 4?
Reply | not met

Ask | Quick check: chromatographic logP of CCCCCOC(=O)Nc1ccc(-c2ccc(C3CCC(c4c(F)cccc4F)=N3)cc2)cc1 (stereo not drawn) under 4?
Reply | not met

Ask | Quick check: chromatographic logP of CCCOC(=O)Nc1ccc(-c2ccc(C3CCC(c4c(F)cccc4F)=N3)cc2)cc1 (stereo not drawn) under 4?
Reply | not met

Ask | Quick check: chromatographic logP of CC(C)C(C)OC(=O)Nc1ccc(-c2ccc(C3CCC(c4c(F)cccc4F)=N3)cc2)cc1 (stereo not drawn) under 4?
Reply | not met

* * *

assay: logP determination by HPLC (reversed-phase C18, EEC Directive 79/831 Annex V.A8)
Format: physicochemical
conditionParameters: reversed-phase C18 HPLC column; HPLC, acidic range pH 2.3, 0.1% aqueous phosphoric acid/acetonitrile; marked a); read-out: log P (pH 2.3)
readoutLabel: chromatographic logP
Just the number.

Ask | What chromatographic logP value was documented for this compound, O=C(Nc1ccc(-c2ccc(C3CCC(c4c(F)cccc4F)=N3)cc2)cc1)N1CCCC1 (stereo not shown) ?
Reply | 2.11

Ask | What chromatographic logP value was documented for this compound, Nc1ccc(-c2ccc(C3CCC(c4c(F)cccc4F)=N3)cc2)cc1 (stereo not shown) ?
Reply | 1.25

Ask | What chromatographic logP value was documented for this compound, O=C1OCCN1c1ccc(-c2ccc(C3CCC(c4c(F)cccc4F)=N3)cc2)cc1 (stereo not shown) ?
Reply | 2.13

Ask | What chromatographic logP value was documented for this compound, O=C(Nc1ccc(Br)cc1)N1CCOCC1 ?
Reply | 1.75

Ask | What chromatographic logP value was documented for this compound, O=C1OCCN1c1ccc(Br)cc1 ?
Reply | 2.02

Ask | What chromatographic logP value was documented for this compound, O=C(Nc1ccc(-c2ccc(C3CCC(c4c(F)cccc4F)=N3)cc2)cc1)N1CCOCC1 (stereo not shown) ?
Reply | 1.87

Ask | What chromatographic logP value was documented for this compound, O=C(Nc1ccccc1)Nc1ccc(-c2ccc(C3CCC(c4c(F)cccc4F)=N3)cc2)cn1 (stereo not shown) ?
Reply | 2.71

Ask | What chromatographic logP value was documented for this compound, O=C(Nc1ccc(-c2ccc(C3CCC(c4c(F)cccc4F)=N3)cc2)cc1)N1CCCCC1 (stereo not shown) ?
Reply | 2.53

Ask | What chromatographic logP value was documented for this compound, CNC(=O)Nc1ccc(-c2ccc(C3CCC(c4c(F)cccc4F)=N3)cc2)cc1 (stereo not shown) ?
Reply | 1.71

Ask | What chromatographic logP value was documented for this compound, CCCCN(CC)C(=O)Nc1ccc(-c2ccc(C3CCC(c4c(F)cccc4F)=N3)cc2)cc1 (stereo not shown) ?
Reply | 3.18
